# Test system: PPARg:RXRa 270nM:90nM, anti-RXR (NR concentration 270 nM, RXRa partner concentration 90 nM)
# measurementNotes: PBM binding z-score (relative to random genomic background probes); higher = stronger binding; sequences stand for … in GC…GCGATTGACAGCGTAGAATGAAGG
# label = fulfilled if PBM binding z-score >= 1 else not fulfilled

- chain: "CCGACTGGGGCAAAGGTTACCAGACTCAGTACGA"
  labelClass: "fulfilled"
- chain: "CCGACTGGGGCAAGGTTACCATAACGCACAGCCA"
  labelClass: "fulfilled"
- chain: "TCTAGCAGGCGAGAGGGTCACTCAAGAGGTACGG"
  labelClass: "fulfilled"
- chain: "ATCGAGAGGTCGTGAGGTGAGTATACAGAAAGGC"
  labelClass: "fulfilled"
- chain: "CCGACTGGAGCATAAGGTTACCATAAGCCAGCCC"
  labelClass: "fulfilled"
- chain: "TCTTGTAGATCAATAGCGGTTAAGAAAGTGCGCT"
  labelClass: "fulfilled"
- chain: "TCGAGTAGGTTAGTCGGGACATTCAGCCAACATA"
  labelClass: "not fulfilled"
- chain: "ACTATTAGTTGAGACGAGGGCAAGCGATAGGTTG"
  labelClass: "not fulfilled"
- chain: "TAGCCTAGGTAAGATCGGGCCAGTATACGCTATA"
  labelClass: "not fulfilled"
- chain: "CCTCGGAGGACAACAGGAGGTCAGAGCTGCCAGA"
  labelClass: "not fulfilled"
- chain: "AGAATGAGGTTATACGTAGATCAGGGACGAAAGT"
  labelClass: "fulfilled"
- chain: "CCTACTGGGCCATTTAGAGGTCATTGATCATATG"
  labelClass: "fulfilled"
- chain: "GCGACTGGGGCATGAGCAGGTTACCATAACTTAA"
  labelClass: "fulfilled"
- chain: "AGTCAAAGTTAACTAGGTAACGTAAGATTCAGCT"
  labelClass: "fulfilled"
- chain: "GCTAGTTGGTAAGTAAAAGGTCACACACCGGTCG"
  labelClass: "fulfilled"
- chain: "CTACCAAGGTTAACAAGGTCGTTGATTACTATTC"
  labelClass: "fulfilled"

Recorded values, source the supplement of paper PMC6555819.
